Hello, the source for this data is ChEMBL document CHEMBL1201862, in case you need it.

Assign GI50 to each entry below.
test system: SF-268; assay: NCI tumour cell line growth inhibition, 48 h
The source made the active and inactive calls. Rule as the data show it: active = GI50 up to about 1.1 µM and inactive = higher.

Example results:
Compound: CC1(C)C=C(N2CCN(C3=CC(C)(C)NC(C)(C)C3)CC2)CC(C)(C)N1
Test Target: SF-268
GI50: > 100 µM (inactive)

Compound: COc1ccc(CCNCc2cccc(OC)c2OC)cc1OC
Test Target: SF-268
GI50: > 100 µM (inactive)

Compound: c1cc(Sc2nc(Sc3ccncc3)nc(Sc3ccncc3)n2)ccn1
Test Target: SF-268
GI50: > 100 µM (inactive)

Compound: Oc1ccc(CCc2cc(O)cc(O)c2)cc1 [DIHYDRORESVERATROL]
Test Target: SF-268
GI50: > 100 µM (inactive)

The recorded GI50 for entry [O-][Cl+3]([O-])([O-])O.c1ccc(/N=c2\nc(N3CCOCC3)ss2)cc1 equals 16 µM (inactive)

* * *

test system: M14; test: NCI tumour cell line growth inhibition, 48 h
Active and inactive are the calls of the source. No stated cut-off is given here; in the data, active = GI50 up to about 1.1 µM and inactive = higher.
Experimental Endpoint: GI50

Compound: N#CI1OC(C(F)(F)F)(C(F)(F)F)c2ccccc21
GI50: 19 µM (inactive)
//
Compound: CC(=O)Oc1cc(Cl)c(C)c2c1[C@H]1CC[C@]3(C)[C@@H](OC(C)=O)CC[C@H]3[C@@H]1CC2
GI50: > 100 µM (inactive)
//
Compound: [O-]c1c[n+](CC[n+]2cc([O-])on2)no1
GI50: > 100 µM (inactive)
//
Compound: OC1COC(OCc2ccccc2)C(O)C1O (stereo unspecified)
GI50: > 100 µM (inactive)
//
Compound: C=CCN(CC=C)CC(C(C)=O)C(c1ccccc1)c1c(O)c2ccccc2oc1=O (stereo unspecified)
GI50: > 100 µM (inactive)
//
Compound: CCN(CC)CCn1ncc2c3c(=O)c4cccnc4n(CCN(CC)CC)c3ccc21
GI50: > 10 µM (inactive)

Please state GI50 for every compound in the list that follows.
1. CC(=O)CCC1(C(=O)OCC(C)C)CCCC1=O (stereo unspecified)
2. O=C(Nn1c(-c2ccccc2)nc2ccccc2c1=O)c1ccc(O)cc1
3. [O-][Cl+3]([O-])([O-])O.c1ccc(/N=c2\nc(N3CCOCC3)ss2)cc1
4. COc1cc2c[n+](C)c3c(c2cc1OC)Cc1cc2c(cc1-3)OCO2
5. Cc1ccc2c(c1)C(=O)/C(=C1/CCc3ccc(C)cc31)C2

Solution:
1: > 100 µM (inactive); 2: > 100 µM (inactive); 3: 14.7 µM (inactive); 4: > 100 µM (inactive); 5: > 100 µM (inactive)

* * *

Assign GI50 to each entry below.
tested on: ACHN; assay: NCI tumour cell line growth inhibition, 48 h
The source made the active and inactive calls. Cut-off read from the data, not from the text of the source: active = GI50 up to about 1.1 µM and inactive = higher.

Example results:
Compound: COc1ccc(C2=C(Cl)c3cc(OC)c(OC)cc3C2)cc1OC
Result: > 100 µM (inactive)

Compound: CSc1nc(-c2cc3c(c(SC)n2)CCCCC3)cc2c1CCCCC2
Result: > 100 µM (inactive)

Compound: O=Cc1c2ccccc2n2ccc3c4ccccc4[nH]c3c12
Result: > 10 µM (inactive)

Please state GI50 for every compound in the list that follows.
1. CCN(CC)CCn1ncc2c3c(=O)c4cccnc4n(CCN(CC)CC)c3ccc21
2. CSC(SC)=C1C(=O)NN=C1C
3. C[C@]12CC[C@H](O)CC1=CC[C@@H]1C2CC[C@]2(C)C(=O)NC(=O)CC12 (stereo partly specified)

Solution:
["5.21 µM (inactive)", "> 100 µM (inactive)", "> 100 µM (inactive)"]

* * *

system: SR; experiment: NCI tumour cell line growth inhibition, 48 h
Calls of active or inactive are those of the source. Cut-off read from the data, not from the text of the source: active = GI50 up to about 1.1 µM and inactive = higher.
In this exercise, the only acceptable responses are 1.0 (active), 0.0 (inactive)

Would you please look over these solved cases?
Compound: Nc1nc(N)c2nc(CNc3ccc(C(=O)O)cc3)[nH]c2n1
Class Assignment: 0.0
//
Compound: COC(=O)C(=O)C(CC(=O)Nc1cc(Cl)ccc1Cl)C(=O)OC (stereo unspecified)
Class Assignment: 0.0

Exercise: In this assay, the call recorded for OC1COC(OCc2ccccc2)C(O)C1O (stereo unspecified) was what?
Solution: 0.0

Exercise: In this assay, the call recorded for O=c1c2c([nH]c3cc4c(cc13)OCO4)-c1ccccc1C2 was what?
Solution: 0.0

* * *

Assign GI50 to each entry below.
system: SK-OV-3; assay: NCI tumour cell line growth inhibition, 48 h
Calls of active or inactive are those of the source. No stated cut-off is given here; in the data, active = GI50 up to about 1.1 µM and inactive = higher.

Example results:
Molecule: CC(=O)Nc1ccc(-c2nnc(SCC(=O)Nc3ccccc3)o2)cc1
Test Target: SK-OV-3
GI50: > 100 µM (inactive)
//
Molecule: C/C=C1/C(=Cc2[nH]c(C=c3[nH]/c(=C/C4=NC(=O)C(CC)=C4C)c(C)c3CCC(=O)O)c(CCC(=O)O)c2C)NC(=O)C1C (stereo not given)
Test Target: SK-OV-3
GI50: 42.1 µM (inactive)
//
Molecule: Cc1cnc2nc(-c3ccc(F)cc3)cc(O)c2c1
Test Target: SK-OV-3
GI50: 21.6 µM (inactive)
//
Molecule: CC1(Cc2cc3c(cc2C2(c4ccc([N+](=O)[O-])cc4)OCCO2)OCO3)OCCO1
Test Target: SK-OV-3
GI50: > 100 µM (inactive)
//
Molecule: O=C1CC(=O)NC(NNS(=O)(=O)c2ccccc2)=N1
Test Target: SK-OV-3
GI50: > 100 µM (inactive)

Please state GI50 for every molecule in the list that follows.
1. O=C1C=CC[C@H]2O[C@@H](COC(=O)Cc3ccccc3)C[C@H]2O1
2. COC1=CC(=O)c2c(c(-c3nc(C)cs3)cn2C)C1=O
3. Cn1nc(-c2ccccc2)c(C(=O)/C=C/c2ccc(F)cc2)c(N2CCOCC2)c1=O
4. NCc1nnn(Cc2ccccc2)c1N
5. CCO/C=C1\SC(=S)N(c2ccc(OCC)cc2)C1=O

Solution:
> 100 µM (inactive)
41.2 µM (inactive)
32.7 µM (inactive)
> 100 µM (inactive)
> 100 µM (inactive)

* * *

system: CAKI-1; experiment: NCI tumour cell line growth inhibition, 48 h
Counter-ions that a name gives are not always drawn. Active and inactive are the calls of the source. Rule as the data show it: active = GI50 up to about 1.1 µM and inactive = higher.
In this exercise, the only acceptable responses are active, inactive

Compound: Clc1nc(Cl)c(CBr)c(Cl)n1
Class Assignment: inactive
//
Compound: CCCCCC(/C=N/Nc1ccccc1)C(O)(C(F)(F)F)C(F)(F)F (configuration not stated)
Class Assignment: inactive
//
Compound: CCNCCCNc1c2ccccc2nc2ccccc12
Class Assignment: active
//
Compound: O=C1c2c(O)cccc2-c2nn(CCNCCO)c3ccc(NCCNCCO)c1c23 [LOSOXANTRONE HYDROCHLORIDE]
Class Assignment: active

Exercise: In this assay, the call recorded for COc1ccc2[nH]c3c([N+](=O)[O-])ccc(NCCCN(C)C)c3/c(=N/CCCN(C)C)c2c1 was what?
Solution: inactive

Exercise: In this assay, the call recorded for CC(=S)NNC(=O)c1ccncc1 was what?
Solution: inactive

Exercise: In this assay, the call recorded for CCOC(=O)CCC(=O)C1c2cccc(O)c2C(=O)c2c(O)cc(C)cc21 (configuration not stated) was what?
Solution: inactive

Exercise: In this assay, the call recorded for COC(=O)C1=C(C(=O)OC)SC(=C(/N=N/c2ccccc2)c2ccccc2)S1 was what?
Solution: inactive

Exercise: In this assay, the call recorded for CC(=O)Nc1ccc(-c2nnc(SCC(=O)Nc3ccccc3)o2)cc1 was what?
Solution: inactive

Exercise: In this assay, the call recorded for O=Cc1c2ccccc2n2ccc3c4ccccc4[nH]c3c12 was what?
Solution: inactive

Exercise: In this assay, the call recorded for CC1(Cc2cc3c(cc2C2(c4ccc([N+](=O)[O-])cc4)OCCO2)OCO3)OCCO1 was what?
Solution: inactive

Exercise: In this assay, the call recorded for CC1(C)S[C@@H]2[C@H](NC(=O)CCC[C@@H](N)C(=O)O)C(=O)N2[C@H]1C(=O)O was what?
Solution: inactive

Exercise: In this assay, the call recorded for COc1ccc(/C=N/Nc2nc(C)c3c(n2)Nc2ccccc2NC3=O)cc1 was what?
Solution: inactive

Exercise: In this assay, the call recorded for Br[Se]c1ccccn1 was what?
Solution: inactive

Exercise: In this assay, the call recorded for Cc1c(C2=NN=C(/N=N/c3c(O)cccc3O)/C2=C/c2ccccc2)c(=O)n(-c2ccccc2)n1C was what?
Solution: inactive

Exercise: In this assay, the call recorded for CN(C)CC1(Cc2ccccc2)CCC(Cc2ccccc2)C1=O (configuration not stated) was what?
Solution: inactive

Exercise: In this assay, the call recorded for CC(C)(C)c1ccc(O)c(C[N+](C)(C)C)c1 was what?
Solution: inactive

Exercise: In this assay, the call recorded for Cc1ccccc1NC(=S)N/N=C1\C(=O)Nc2ccccc21 was what?
Solution: inactive

Exercise: In this assay, the call recorded for CCOC(=O)C(=O)Nc1ccccc1C(C)C was what?
Solution: inactive

Exercise: In this assay, the call recorded for O=C(c1ccccc1)n1[nH]c(=O)n(-c2ccc(Cl)cc2)c1=O was what?
Solution: inactive

Exercise: In this assay, the call recorded for CCCCC(=O)Nc1ccc2cc(C(=O)OC)c(ON3C(=O)c4ccccc4C3=O)nc2n1 was what?
Solution: inactive

Exercise: In this assay, the call recorded for COC(=O)Cc1cc(=O)n2c([nH]c3ccccc32)c1C#N was what?
Solution: inactive
